Test system: SNB-78
protocol.notes: NCI tumour cell line growth inhibition, 48 h
The source made the active and inactive calls. No stated cut-off is given here; in the data, active = GI50 up to about 1.1 µM and inactive = higher.
# reported GI50; entries follow
reported.metric: GI50

{"compound": "S=c1[nH]nc(Cc2ccccc2)c(=S)[nH]1", "result": "> 100 µM (inactive)"}
{"compound": "COC(=O)C(CC1=C(O)Nc2ccccc2N1)/C(=N/NC(N)=O)C(=O)Nc1ccccc1C (stereo not given)", "result": "> 100 µM (inactive)"}
{"compound": "COc1cc([C@@H]2c3cc4c(cc3[C@@H](NCc3cccc(F)c3)C3COC(=O)[C@@H]32)OCO4)cc(OC)c1O (stereo not given in full)", "result": "15.3 µM (inactive)"}
{"compound": "COc1ccccc1/C=C1\\CCC(CNc2ccc(Cl)cc2)C1=O (stereo not given)", "result": "19.5 µM (inactive)"}
{"compound": "CCNCCCCNCCCCNCCCCNCCCCNCC", "result": "> 100 µM (inactive)"}

###

# reported GI50; entries follow
Test system: HCT-116
protocol.notes: NCI tumour cell line growth inhibition, 48 h
Activity calls are given as the source filed them. Cut-off read from the data, not from the text of the source: active = GI50 up to about 1.1 µM and inactive = higher.

{"compound": "O=C1C=CC(=O)c2c(O)c(N3CCN(c4ccccn4)CC3)cc(O)c21", "target.or.test.system": "HCT-116", "GI50": "2.85 µM (inactive)"}
{"compound": "COc1ccc(OC2OC(CO)C(OCc3ccccc3)C(OCc3ccccc3)C2OCc2ccccc2)cc1 (centres undefined)", "target.or.test.system": "HCT-116", "GI50": "14.8 µM (inactive)"}
{"compound": "C=C(C)C(=O)OC1CC2(C)OC2CC(OC(C)=O)/C(C)=C/C2OC(=O)C(=C)C21 (centres undefined)", "target.or.test.system": "HCT-116", "GI50": "1.7 µM (inactive)"}
{"compound": "CC(=O)NC(C)c1ccc(/N=N/N2CCCC2)cc1 (centres undefined)", "target.or.test.system": "HCT-116", "GI50": "> 100 µM (inactive)"}
{"compound": "CC1(C)CC[C@]2(C(=O)O)CC[C@]3(C)C(=CC[C@@H]4[C@@]5(C)CC[C@H](OC6OC(CO)C(O)C(O)C6OC6OC(CO)C(O)C(O)C6O)C(C)(C)[C@@H]5CC[C@]43C)[C@@H]2C1 (some centres undefined)", "target.or.test.system": "HCT-116", "GI50": "17.1 µM (inactive)"}
{"compound": "O=C(C#CP(=O)(O)c1ccccc1)c1ccccc1", "target.or.test.system": "HCT-116", "GI50": "> 100 µM (inactive)"}
{"compound": "CC(O)(c1ccccc1)c1nccc2ccccc12 (centres undefined)", "target.or.test.system": "HCT-116", "GI50": "61.4 µM (inactive)"}
{"compound": "N#CC1(Cc2ccc(N)cc2)c2ccccc2C=CN1C(=O)c1ccccc1 (centres undefined)", "target.or.test.system": "HCT-116", "GI50": "54 µM (inactive)"}
{"compound": "COc1ccc(N2C(=O)C(N3C(=O)C=CC3=O)C2C=O)cc1 (centres undefined)", "target.or.test.system": "HCT-116", "GI50": "> 100 µM (inactive)"}

###

System: ACHN
protocol.notes: NCI tumour cell line growth inhibition, 48 h
Active and inactive are the calls of the source. Cut-off read from the data, not from the text of the source: active = GI50 up to about 1.1 µM and inactive = higher.
reported.metric: GI50

{"compound": "COc1ccc(CC2C3=C(CCCC3)CCN2C)cc1 (stereo unspecified)", "result": "> 100 µM (inactive)"}
{"compound": "CC1OC(OP(=O)(OCc2ccccc2)OCc2ccccc2)C(OC(=O)c2ccccc2)C(OC(=O)c2ccccc2)C1I (stereo unspecified)", "result": "32.6 µM (inactive)"}
{"compound": "Cc1cc2cc3c(cc2c(-c2ccc(N)cc2)n1)OCO3", "result": "39.5 µM (inactive)"}
{"compound": "COc1ccc2c3c1OC1C34CCN(C)C(C2)C4=CC(I)C1(OC)OC (stereo unspecified)", "result": "11.3 µM (inactive)"}
{"compound": "N#Cc1nc2ccccc2nc1N1CCN(c2ccc([N+](=O)[O-])cc2)CC1", "result": "> 100 µM (inactive)"}
{"compound": "COc1ccc(C(N)=O)c(OC)c1OCc1ccccc1", "result": "> 100 µM (inactive)"}
{"compound": "CCN(CC)c1ccc(/C=C(\\C#N)c2nc(N)nc(N3N=C(C)CC3(C)C)n2)cc1", "result": "14.7 µM (inactive)"}
{"compound": "COc1nc(=O)n(C2CC(F)C(CO)O2)cc1C (stereo unspecified)", "result": "> 100 µM (inactive)"}
{"compound": "C=CC1(c2ccc(OC)cc2)OCCCO1", "result": "> 100 µM (inactive)"}
{"compound": "COC1(OC)C2(Cl)C(Cl)=C(Cl)C1(Cl)C1c3ccc(C(C)=O)c4cccc(c34)C12 (stereo unspecified)", "result": "19 µM (inactive)"}
{"compound": "COc1ccc(C(OCC2OC(n3ccc(Oc4c(F)c(F)c(F)c(F)c4F)nc3=O)CC2OP(OCCC#N)N(C(C)C)C(C)C)(c2ccccc2)c2ccc(OC)cc2)cc1 (stereo unspecified)", "result": "> 100 µM (inactive)"}

###

System: K562
protocol.notes: NCI tumour cell line growth inhibition, 48 h
Activity calls are given as the source filed them. Rule as the data show it: active = GI50 up to about 1.1 µM and inactive = higher.
reported.metric: GI50

{"compound": "COc1ccc(-c2cc(-c3ccccc3)nc(N)n2)c(O)c1", "reported.metric": "GI50", "result": "2.19 µM (inactive)"}
{"compound": "CC1=Cc2ccc(C)cc2C(=O)C1=O", "reported.metric": "GI50", "result": "2.07 µM (inactive)"}
{"compound": "N#Cc1c(-c2ccccc2)cc(-c2ccc(Cl)cc2)[nH]c1=S", "reported.metric": "GI50", "result": "34 µM (inactive)"}
{"compound": "COC(=O)C(Cc1c[nH]c2ccccc12)NC(=O)C(Cc1c[nH]cn1)NC(=O)C1CCC(=O)N1C(=O)OCc1ccccc1 (stereo not given)", "reported.metric": "GI50", "result": "> 100 µM (inactive)"}
{"compound": "O=C(/C=C/c1cccc([N+](=O)[O-])c1)N1CCN(CCOC(c2ccccc2)c2ccccc2)CC1", "reported.metric": "GI50", "result": "19.4 µM (inactive)"}

###

# reported GI50; entries follow
System: MDA-MB-231
protocol.notes: NCI tumour cell line growth inhibition, 48 h
Active and inactive are the calls of the source. No stated cut-off is given here; in the data, active = GI50 up to about 1.1 µM and inactive = higher.
reported.metric: GI50

{"compound": "O=S(=O)(O)CCCc1cccc2ccccc12", "result": "> 100 µM (inactive)"}
{"compound": "C=CCOC(=O)CCCCCCCCCCCCCCCOC(=O)C1=C(CCC[C@@H](C)O[Si](C)(C)C(C)(C)C)NC(=O)N2[C@H](CC3(CC/C=C\\[C@H](CC)O[Si](C(C)C)(C(C)C)C(C)C)OCCO3)CC[C@H]12", "result": "> 100 µM (inactive)"}
{"compound": "Fc1cccc2nc(-c3ccccc3)cc(OCc3ccccc3)c12", "result": "> 100 µM (inactive)"}
{"compound": "CNC1C(O)C(OC2C(N)CC(N)C(OC3OC(C(C)O)C(O)C(O)C3N)C2O)OCC1(C)O (stereo not given)", "result": "> 100 µM (inactive)"}
{"compound": "O=c1c(-c2nc3ccccc3c3ccccc3c2=O)nc2ccccc2c2ccccc12", "result": "34 µM (inactive)"}
{"compound": "NC(=O)OCc1c(-c2ccccc2)nn(-c2ccccc2)c1COC(N)=O", "result": "> 100 µM (inactive)"}
{"compound": "CCOC(=O)/C=C(\\C(=O)OCC)n1ccc(=O)[nH]c1=O", "result": "14.3 µM (inactive)"}
{"compound": "Cc1c(/C=N/NC(=S)Nc2ccccc2)c(=O)n(-c2ccccc2)n1C", "result": "> 100 µM (inactive)"}
{"compound": "Sc1nnc(Cc2ccc(Cl)cc2)[nH]1", "result": "42.3 µM (inactive)"}
{"compound": "C/C(=N\\NC(N)=S)c1ccc2c(c1)Sc1ccccc1O2", "result": "5.05 µM (inactive)"}

###

System: NCI-H23
protocol.notes: NCI tumour cell line growth inhibition, 48 h
Activity calls are given as the source filed them. Rule as the data show it: active = GI50 up to about 1.1 µM and inactive = higher.
# reported GI50; entries follow

{"molecule": "COc1ccc2c3c1OC1C34CCN(C)C(C2)C4=CC(I)C1(OC)OC (centres undefined)", "GI50": "7.41 µM (inactive)"}
{"molecule": "O=C(CCN1CCOCC1)C(=Cc1ccccc1)C(=O)CCN1CCOCC1", "GI50": "2.3 µM (inactive)"}
{"molecule": "C=CCOC(=O)CCCCCCCCCCCCCCCOC(=O)C1=C(CCC[C@@H](C)O[Si](C)(C)C(C)(C)C)NC(=O)N2[C@H](CC3(CC/C=C\\[C@H](CC)O[Si](C(C)C)(C(C)C)C(C)C)OCCO3)CC[C@H]12", "GI50": "> 100 µM (inactive)"}
{"molecule": "O=C(NC1C2CC3CC(C2)CC1C3)c1ccncn1 (centres undefined)", "GI50": "> 100 µM (inactive)"}

Data credit: ChEMBL document CHEMBL1201862
